Answer each item with its documented log10 of EC50.
# Target Entity: hPPARα (Homo sapiens, UniProt Q07869)
# Sequence (Q07869 200-468 limits assumed): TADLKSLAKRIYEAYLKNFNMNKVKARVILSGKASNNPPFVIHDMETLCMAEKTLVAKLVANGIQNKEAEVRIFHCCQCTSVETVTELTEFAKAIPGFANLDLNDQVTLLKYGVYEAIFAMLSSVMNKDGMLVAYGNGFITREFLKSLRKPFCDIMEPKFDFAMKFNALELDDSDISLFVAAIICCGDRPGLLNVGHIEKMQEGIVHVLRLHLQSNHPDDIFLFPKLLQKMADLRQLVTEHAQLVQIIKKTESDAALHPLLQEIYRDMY
# Test Protocol: Test A: transient transfection assay in HepG2 cells, Gal4-PPAR chimeric receptor, luciferase reporter (hPPARα)
# Test Context: HepG2 cells transfected with hPPARα chimeric receptor; 24 hours incubation; compound 50 μM to 50 pM; read-out: Hep G2-hα EC50
# From the text: 1. Test A. Transient Transfections Assay Using the HepG2 Hepatoma Cell Line. HepG2 cells were transiently transfected with an expression plasmids encoding hPPARα, hPPARβ or mPPARγ chimeric receptors and a reporter containing the yeast upstream activating sequence (UAS) upstream of the viral E1B promoter controlling a luciferase reporter gene. In addition, the plasmid pRSVβ-gal was used to control for transfection efficiency. […]
A difference of one corresponds to tenfold EC50; all values are log10 with EC50 in nM.

q: Would you mind telling me what log10 of EC50 value was observed for Cc1nc(-c2ccc(C(F)(F)F)cc2)sc1CSc1ccc2c(c1)CC(C(=O)O)C2 (centres unmarked) ?
a: 2.58

q: Data request, read-out log10 of EC50, for COc1cc2c(cc1SCc1sc(-c3ccc(C(F)(F)F)cc3)nc1C)CCC2CC(=O)O (centres unmarked)
a: 1.62

q: Please look up its log10 of EC50: Cc1nc(-c2ccc(C(F)(F)F)cc2)sc1CSc1ccc2c(c1)CC(CC(=O)O)O2 (centres unmarked)
a: 2.95

q: Which log10 of EC50 is listed for Cc1nc(-c2ccc(C(F)(F)F)cc2)sc1CSc1ccc2c(c1)CCC(CC(=O)O)O2 (centres unmarked) ?
a: 3.57

q: Entry under review: Cc1nc(-c2ccc(C(F)(F)F)cc2)sc1CSc1ccc2c(c1)CCC(C(=O)O)O2 (centres unmarked) . Reported log10 of EC50?
a: 2.96

###

# Target Entity: hPPARβ (Homo sapiens, UniProt Q03181)
# Sequence (Q03181 211-441 limits assumed): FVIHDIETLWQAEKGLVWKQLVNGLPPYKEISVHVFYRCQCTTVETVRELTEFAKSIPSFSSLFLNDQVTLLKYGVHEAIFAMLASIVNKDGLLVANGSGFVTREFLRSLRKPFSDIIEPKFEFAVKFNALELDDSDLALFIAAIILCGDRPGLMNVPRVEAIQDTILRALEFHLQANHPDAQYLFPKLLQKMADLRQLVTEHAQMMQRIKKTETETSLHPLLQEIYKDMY
# Test Protocol: Test A: transient transfection assay in HepG2 cells, Gal4-PPAR chimeric receptor, luciferase reporter (hPPARβ)
# Test Context: HepG2 cells transfected with hPPARβ chimeric receptor; 24 hours incubation; compound 50 μM to 50 pM; read-out: Hep G2-hβ EC50
Values of EC50 strictly less than 2000 nM map to label 1, and values of at least 2000 nM map to label 0.

q: Is EC50 strictly under 2000 nM for the entry Cc1nc(-c2ccc(C(F)(F)F)cc2)sc1CSc1ccc2c(c1)CCCN2CC(=O)O [Example 11] ?
a: label 1

q: Determine if Cc1nc(-c2ccc(C(F)(F)F)cc2)sc1CSc1ccc2c(c1)CCC(CC(=O)O)C2=O (centres unmarked) [Example 7] shows EC50 strictly lower than 2000 nM.
a: label 1

q: hey, is EC50 for Cc1nc(-c2ccc(C(F)(F)F)cc2)sc1CSc1ccc2c(c1)CC(CC(=O)O)C2 (centres unmarked) [Example 2] lower than 2000 nM or not?
a: label 1

q: hey, is EC50 for Cc1nc(-c2ccc(C(F)(F)F)cc2)sc1CSc1ccc2c(c1)C=C(C(=O)O)CO2 [Example 16] lower than 2000 nM or not?
a: label 0

q: Below 2000 nM on EC50? Entry Cc1nc(-c2ccc(C(F)(F)F)cc2)sc1CSc1ccc2c(c1)CC(CC(=O)O)O2 (centres unmarked) [Example 4]
a: label 1
